Test system: Staphylococcus aureus (S. aureus, ATCC-25923)
Assay: Well diffusion assay (zone of inhibition)
Format: cell-based
Zone of inhibition (ZOI) for assorted compounds
Express your answer as a number followed by its unit.

// solved cases for Zone of inhibition (ZOI) follow
> print(dat)
                                   compound                           measured.target  result.value
1  Cc1csc[n+]1Cc1ccc(C(C)(C)C)cc1.F[B-](F)(F)F [3c]  Staphylococcus aureus (S. aureus, ATCC-25923)      39.02 mm
2  Cc1ccc(C[n+]2cscc2C)cc1.F[B-](F)(F)F [3a]  Staphylococcus aureus (S. aureus, ATCC-25923)      39.21 mm
3    Cc1csc[n+]1Cc1ccc(C(C)C)cc1.[Cl-] [2b]  Staphylococcus aureus (S. aureus, ATCC-25923)      32.13 mm

Shift focus to the following entry.
# get_value(readout='Zone of inhibition (ZOI)', item= Cc1csc[n+]1Cc1ccc(C(C)C)cc1.F[B-](F)(F)F [3b] )
41.86 mm

---

Tested on: E. coli (ATCC-25922)
Assay: Minimal inhibitory/bactericidal concentrations (MIC/MBC)
Assay type: cell-based, Escherichia coli
Could you mark each record MET if its MIC ± SD falls strictly under 6 mM, and NOT MET if it equals or exceeds it?

> print(dat)
                            smiles.notation  class.label
1      Cc1ccc(C[n+]2cscc2C)cc1.F[B-](F)(F)F          MET
2      Cc1csc[n+]1Cc1ccc(C(C)(C)C)cc1.[Cl-]      NOT MET
3             Cc1ccc(C[n+]2cscc2C)cc1.[Cl-]      NOT MET
4         Cc1csc[n+]1Cc1ccc(C(C)C)cc1.[Cl-]          MET
5  Cc1csc[n+]1Cc1ccc(C(C)C)cc1.F[B-](F)(F)F          MET

Here's the next entry for you.
Check if MIC ± SD falls below 6 mM for Cc1csc[n+]1Cc1ccc(C(C)(C)C)cc1.F[B-](F)(F)F .
NOT MET

---

MIC ± SD for assorted compounds
Tested on: S. aureus (ATCC-25923)
Assay: Minimal inhibitory/bactericidal concentrations (MIC/MBC)
Type: cell-based, Staphylococcus aureus
Cond: S. aureus
Text: The antimicrobial activity of newly synthesized benzyl thiazolium ionic liquids (BTILs) was investigated in vitro against the most common foodborne bacterial strains (Staphylococcus aureus (S. aureus, ATCC-25923) and Escherichia coli (E. coli, ATCC-25922)) in comparison with clinical drugs (Gentamycin (Gm) and Tetracyclin (TC)). These tests have been conducted in accordance with the standard antimicrobial assessment protocols we've described and used in our previous studies.[29] […]
The figure you give is taken to be in mM; do not add the unit.

# get_value(readout='MIC ± SD', item= Cc1csc[n+]1Cc1ccc(C(C)C)cc1.F[B-](F)(F)F [3b] )
2.56

# get_value(readout='MIC ± SD', item= Cc1ccc(C[n+]2cscc2C)cc1.[Cl-] [2a] )
4.05

# get_value(readout='MIC ± SD', item= Cc1csc[n+]1Cc1ccc(C(C)(C)C)cc1.F[B-](F)(F)F [3c] )
3.12

# get_value(readout='MIC ± SD', item= Cc1csc[n+]1Cc1ccc(C(C)C)cc1.[Cl-] [2b] )
2.35

# get_value(readout='MIC ± SD', item= Cc1ccc(C[n+]2cscc2C)cc1.F[B-](F)(F)F [3a] )
3.25

# get_value(readout='MIC ± SD', item= Cc1csc[n+]1Cc1ccc(C(C)(C)C)cc1.[Cl-] [2c] )
3.75

---

Test system: S. aureus (ATCC-25923)
Assay: Minimal inhibitory/bactericidal concentrations (MIC/MBC)
Format: cell-based, Staphylococcus aureus
Cond: S. aureus
MBC ± SD for assorted compounds
The figure you give is taken to be in mM; do not add the unit.

// solved cases for MBC ± SD follow
> print(dat)
                            smiles.notation  endpoint  result.value
1  Cc1csc[n+]1Cc1ccc(C(C)C)cc1.F[B-](F)(F)F  MBC ± SD          2.56
2      Cc1ccc(C[n+]2cscc2C)cc1.F[B-](F)(F)F  MBC ± SD          3.25
3      Cc1csc[n+]1Cc1ccc(C(C)(C)C)cc1.[Cl-]  MBC ± SD          3.75
4         Cc1csc[n+]1Cc1ccc(C(C)C)cc1.[Cl-]  MBC ± SD          2.35
5             Cc1ccc(C[n+]2cscc2C)cc1.[Cl-]  MBC ± SD          4.25

Shift focus to the following entry.
# get_value(readout='MBC ± SD', item= Cc1csc[n+]1Cc1ccc(C(C)(C)C)cc1.F[B-](F)(F)F )
3.12
